The following molecules are shown together with reported 25 μM % Lysed cells (1 h LDH) values.
Test system: SJSA-1 cells
Assay: Cell lysis by peptidomimetic macrocycles (LDH release)
Format: cell-based
Settings: 25 μM, SJSA-1, 1 h
Bridge positions count the residues as written; N and C are the ends. Square brackets hold non-standard residues; d marks the D form. Peptide text beside a SMILES is read from it. R8 = C=CCCCCCC[C@@](C)(N)C(=O)O; S5 = C=CCCC[C@](C)(N)C(=O)O
Unit % implied. Number only.

CC(=O)N[C@@H](CCC(=O)O)C(=O)N[C@H](C(=O)N[C@@H](Cc1ccccc1)C(=O)N[C@]1(C)CCCCCCC=CCCC[C@@](C)(C(=O)N[C@@H](CO)C(=O)N[C@H](C(=O)N[C@@H](C)C(N)=O)C(C)C)NC(=O)[C@H](CC(C)C)NC(=O)[C@H](CCC(N)=O)NC(=O)[C@H](C)NC(=O)[C@H](Cc2c[nH]c3ccccc23)NC(=O)[C@H](Cc2ccc(O)cc2)NC(=O)[C@H](C(C)C)NC1=O)[C@@H](C)O [compound 126] (Ac-ETF[R8]VYWAQL[S5]SVA-NH2; staple 4-11) = 1

Attention now turns to another entry.
Challenge: Endpoint output: 25 μM % Lysed cells (1 h LDH) of CCCCCC(=O)N[C@@H](CC(C)C)C(=O)N[C@H](C(=O)N[C@@H](Cc1ccccc1)C(=O)N[C@]1(C)CCCCCCC=CCCC[C@@](C)(C(=O)N[C@@H](CO)C(=O)N[C@@H](C)C(=O)N[C@@H](C)C(N)=O)NC(=O)[C@H](CCC(C)C)NC(=O)[C@H](CCC(N)=O)NC(=O)[C@H](C)NC(=O)[C@H](Cc2c[nH]c3ccccc23)NC(=O)[C@H](Cc2ccc(O)cc2)NC(=O)[C@H](CCC(=O)O)NC1=O)[C@@H](C)O . Value?
Response given: 6

The measured values listed here are drawn from patent US20200369728A1.
